Assay: Absorption and fluorescence spectra, extinction coefficient, fluorescence quantum yield
Format: physicochemical
Conditions: Table 15, C6H6

{"molecule": "CN1/C(=C/C=C/C=C2/C(=O)c3ccccc3S2(=O)=O)C(C)(C)c2ccccc21 [I-SO, reference compound]", "Observed emission (Φ)": 0.42}
{"molecule": "C[n+]1ccc(/C=C/C=C/C2=C([O-])c3ccccc3S2(=O)=O)cc1", "Observed emission (Φ)": 0.002}
{"molecule": "CC1(C)c2ccccc2-[n+]2ccc(/C=C/C=C/C3=C(O)c4ccccc4S3(=O)=O)cc21", "Observed emission (Φ)": 0.19}
{"molecule": "Cn1c([O-])c(/C=C/C=C/c2cc[n+]3c(c2)C(C)(C)c2ccccc2-3)c(=O)n(C)c1=O", "Observed emission (Φ)": 0.01}

----------
Assay: Absorption and fluorescence spectra, extinction coefficient, fluorescence quantum yield
Type: physicochemical
Conditions: Table 15, EtOH

{"compound": "CC1(C)c2ccccc2-[n+]2ccc(/C=C/C3=C([O-])c4ccccc4S3(=O)=O)cc21 [AI-SO(2)]", "Observed emission λmax / nm": 563}
{"compound": "C[n+]1ccc(/C=C/C=C/C2=C([O-])c3ccccc3S2(=O)=O)cc1 [P-SO(4)]", "Observed emission λmax / nm": 634}
{"compound": "C[n+]1ccc(/C=C/C2=C([O-])c3ccccc3S2(=O)=O)cc1 [P-SO(2)]", "Observed emission λmax / nm": 533}
{"compound": "Cn1c([O-])c(/C=C/C=C/c2cc[n+]3c(c2)C(C)(C)c2ccccc2-3)c(=O)n(C)c1=O [AI-BA]", "Observed emission λmax / nm": 651}
{"compound": "CC1(C)c2ccccc2-[n+]2ccc(/C=C/C=C/C3=C(O)c4ccccc4S3(=O)=O)cc21 [AI-SO]", "Observed emission λmax / nm": 671}

----------
Test: Absorption and fluorescence spectra, extinction coefficient, fluorescence quantum yield
Type: physicochemical
Conditions: Table 15, i-PrOH

{"structure.notation": "Cn1c([O-])c(/C=C/C=C/c2cc[n+]3c(c2)C(C)(C)c2ccccc2-3)c(=O)n(C)c1=O", "Observed emission λmax / nm": 652}
{"structure.notation": "C[n+]1ccc(/C=C/C2=C([O-])c3ccccc3S2(=O)=O)cc1", "Observed emission λmax / nm": 532}
{"structure.notation": "CC1(C)c2ccccc2-[n+]2ccc(/C=C/C3=C([O-])c4ccccc4S3(=O)=O)cc21", "Observed emission λmax / nm": 565}
{"structure.notation": "CC1(C)c2ccccc2-[n+]2ccc(/C=C/C=C/C3=C(O)c4ccccc4S3(=O)=O)cc21", "Observed emission λmax / nm": 673}
{"structure.notation": "C[n+]1ccc(/C=C/C=C/C2=C([O-])c3ccccc3S2(=O)=O)cc1", "Observed emission λmax / nm": 636}

----------
Assay: Absorption and fluorescence spectra, extinction coefficient, fluorescence quantum yield
Type: physicochemical
Conditions: Butanol (BuOH)
List of Fluorescence quantum yield Φ values.

{"molecule": "CC1(C)c2ccccc2-[n+]2ccc(/C=C/C=C/C3=C(O)c4ccccc4S3(=O)=O)cc21", "Fluorescence quantum yield Φ": 0.92}
{"molecule": "CN1/C(=C(C#N)/C=C/C=C2/C(=O)c3ccccc3S2(=O)=O)C(C)(C)c2ccccc21", "Fluorescence quantum yield Φ": 0.04}
{"molecule": "CN1/C(=C/C=C/C=C2/C(=O)c3ccccc3S2(=O)=O)C(C)(C)c2ccccc21 [I-SO, reference compound]", "Fluorescence quantum yield Φ": 0.2}
{"molecule": "Cn1c(O)c(/C=C/C=C/c2cc[n+]3c(c2)C(C)(C)c2ccccc2-3)c(=O)n(C)c1=O", "Fluorescence quantum yield Φ": 0.29}
{"molecule": "CCN1/C(=C(C#N)/C=C/C=C2/C(=O)c3ccccc3S2(=O)=O)Sc2ccccc21", "Fluorescence quantum yield Φ": 0.16}

Origin of values: patent US8835632B2
